// Variation/Control lookup, one value per entry
test system: Canis familiaris; experiment: Intracardiac conduction in anesthetized dogs, measured as HV; HV being the conduction time in specific intraventricular tissue; assay type: functional, Canis lupus familiaris, Cardiac ventricle
Report the figure in % without appending any unit label.

# example entries with known answers
{"compound": "CC(C)CC(CCCN(C(C)C)C(C)C)(C(N)=O)c1ccccn1 (centres undefined)", "unit-tag": "%", "recorded-measurement": 0}
{"compound": "CC(C)CC(CCN(C(C)C)C(C)C)(C(N)=O)c1cccnc1 (centres undefined)", "unit-tag": "%", "recorded-measurement": 25}
{"compound": "CC(C)CC(CCN1CCOCC1)(C(N)=O)c1ccccn1 (centres undefined)", "unit-tag": "%", "recorded-measurement": 0}

Below: the item to evaluate.
Data request: Looking for the measured Variation/Control of CCCC(CCN(C(C)C)C(C)C)(C(N)=O)c1ccccn1 (centres undefined) , can you help?
Data returned: 0

====

tested on: Canis familiaris; assay: Intracardiac conduction in anesthetized dogs, measured as HV; HV being the conduction time in specific intraventricular tissue; type: functional, Canis lupus familiaris, Cardiac ventricle; design: concentration or dose not given beside the values
// Variation/Control lookup, one value per entry
Report the figure in % without appending any unit label.

# example entries with known answers
{"molecule": "CC(C)CC(CCN(C(C)C)C(C)C)(C(N)=O)c1ccncc1 (stereo not given)", "unit-tag": "%", "recorded-measurement": 45}
{"molecule": "CCN(CC)CCC(CC(C)C)(C(N)=O)c1ccccn1 (stereo not given)", "unit-tag": "%", "recorded-measurement": 0}
{"molecule": "CCC(C)C(CCN(C(C)C)C(C)C)(C(N)=O)c1ccccn1 (stereo not given)", "unit-tag": "%", "recorded-measurement": 30}

Data request: Looking for the measured Variation/Control of CC(C)CC(CCN(C1CCCCC1)C1CCCCC1)(C(N)=O)c1ccccn1 (stereo not given) , can you help?
Data returned: 75

Data request: Also check CCC(CCN(C(C)C)C(C)C)(C(N)=O)c1ccccn1 (stereo not given)
Data returned: 0

Data request: Also check CCCN(CCC)CCC(CC(C)C)(C(N)=O)c1ccccn1 (stereo not given)
Data returned: 0

Data request: Also check CC(C)CC(CCN(C(C)C)C1CCCCC1)(C(N)=O)c1ccccn1 (stereo not given)
Data returned: 50

Data request: Also check CC(C)N(CCC(C(N)=O)(c1ccccn1)C(C)C)C(C)C (stereo not given)
Data returned: 0

Data request: Also check CC(C)N(CCC(C(N)=O)(c1ccccn1)C1CCCCC1)C(C)C (stereo not given)
Data returned: 40

Data request: Also check CC(C)N(CCC(C(N)=O)c1ccccn1)C(C)C (stereo not given)
Data returned: 0

====

test system: Canis familiaris; experiment: Antiarrhythmic potential in conscious dogs; format: functional, Canis lupus familiaris, Heart
Lab note: anything with Actual duraction below 200 min is marked Y; values at 200 min or higher are marked N.

Data request: Does the reported Actual duraction of the following molecule sit strictly below 200 min? CC(C)CC(CCN(C(C)C)C1CCCCC1)(C(N)=O)c1ccccn1 (stereo unspecified)
Data returned: N

Data request: Also check CCCCCC(CCN(C(C)C)C(C)C)(C(N)=O)c1ccccn1 (stereo unspecified)
Data returned: Y

Data request: Also check CC(C)CC(CCN(C(C)C)C(C)C)(C(N)=O)c1cccnc1 (stereo unspecified)
Data returned: Y

Data request: Also check CCC(C)C(CCN(C(C)C)C(C)C)(C(N)=O)c1ccccn1 (stereo unspecified)
Data returned: N

Data request: Also check CC(C)CC(CCCN(C(C)C)C(C)C)(C(N)=O)c1ccccn1 (stereo unspecified)
Data returned: Y

Data request: Also check CCCC(CCN(C(C)C)C(C)C)(C(N)=O)c1ccccn1 (stereo unspecified)
Data returned: Y
